# study.system: UniProt:P0A879
# experiment: Activity of immobilized tryptophan synthase source after standing in aqueous solutions of organic impurities
# Format: biochemical, Escherichia coli MT-10232 (FERM BP-19)
# condition.description: 96 h; impurity 200 ppm, 30° C., pH 8.5; ratio to enzyme left in reference solution without organic substance; read-out: Activity Ratio 96 Hours Later
# Protocol: Escherichia coli MT-10232 (FERM BP-19), which is a tryptophan synthase-producing bacterium, was inoculated to 100 ml of the culture medium having the composition shown in Table 2 in a 500 ml flask, and was incubated at 35° C. for 24 hours. […] Twenty four hours later and 96 hours later, 1 g of immobilized enzyme source was removed from each of the solutions and the enzyme activity was determined. […] The enzyme activity was determined as follows: […]
Decide using activity at 200 µg/mL alone. Strictly below 90%: MET. Equal to or above 90%: NOT MET.

smiles: CCc1cc2ccccc2[nH]1
study.system: UniProt:P0A879
group: MET
//
smiles: Nc1ccccc1
study.system: UniProt:P0A879
group: NOT MET
//
smiles: Cc1ccccc1N
study.system: UniProt:P0A879
group: NOT MET
//
smiles: CCc1ccccc1N
study.system: UniProt:P0A879
group: MET
//
smiles: CCNc1ccccc1
study.system: UniProt:P0A879
group: NOT MET

###

# study.system: tryptophan synthase (Escherichia coli, UniProt P0A879)
# Sequence (P0A879 2-397): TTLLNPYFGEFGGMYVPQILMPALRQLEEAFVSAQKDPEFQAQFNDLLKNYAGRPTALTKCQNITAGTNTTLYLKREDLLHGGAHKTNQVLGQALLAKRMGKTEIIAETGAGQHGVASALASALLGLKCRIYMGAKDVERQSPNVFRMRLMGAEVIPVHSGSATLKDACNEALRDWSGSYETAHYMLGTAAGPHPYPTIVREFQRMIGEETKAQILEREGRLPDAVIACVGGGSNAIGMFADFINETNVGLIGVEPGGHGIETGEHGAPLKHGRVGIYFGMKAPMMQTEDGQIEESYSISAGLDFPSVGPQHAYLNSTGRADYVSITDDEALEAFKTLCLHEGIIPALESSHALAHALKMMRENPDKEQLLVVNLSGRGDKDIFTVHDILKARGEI
# Sequence (P0A877 whole entry, further chain): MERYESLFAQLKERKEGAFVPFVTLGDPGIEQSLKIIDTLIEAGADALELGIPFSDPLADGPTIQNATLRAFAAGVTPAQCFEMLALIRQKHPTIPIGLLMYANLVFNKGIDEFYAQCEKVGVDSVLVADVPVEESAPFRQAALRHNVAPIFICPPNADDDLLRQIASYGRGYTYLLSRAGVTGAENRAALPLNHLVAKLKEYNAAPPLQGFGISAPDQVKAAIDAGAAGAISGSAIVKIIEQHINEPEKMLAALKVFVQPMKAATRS
# experiment: Activity of immobilized tryptophan synthase source after standing in aqueous solutions of organic impurities
# Format: biochemical, Escherichia coli MT-10232 (FERM BP-19)
# condition.description: 96 h; impurity 1000 ppm, 30° C., pH 8.5; ratio to enzyme left in reference solution; read-out: Activity Ratio 96 Hours Later
reported.metric: activity at 1000 µg/mL (%)

molecule: CCNc1ccccc1 [N-ethylaniline]
unit.info: %
recorded.measurement: 89
//
molecule: CCc1ccccc1N [o-ethylaniline]
unit.info: %
recorded.measurement: 50
//
molecule: Nc1ccccc1 [Aniline]
unit.info: %
recorded.measurement: 82
//
molecule: Cc1ccccc1N [o-toluidine]
unit.info: %
recorded.measurement: 80
